Assay Details: Inhibition of ALR2 in rat lens using D,L-glyceraldehyde as substrate in presence of NADPH
Format: tissue-based
pIC50: −log10 of the molar value.
Measure: pIC50

CC(C(=O)O)N1C(=O)C(=O)N(Cc2ccc(Cl)c(Cl)c2)C1=O (stereo not drawn): 7.12

A = CC(C(=O)O)N1C(=O)C(=O)N(Cc2cccc([N+](=O)[O-])c2)C1=O (stereo not drawn)
B = O=C1C(=O)N(C2(C(=O)O)CCCCC2)C(=O)N1Cc1ccc(Cl)cc1Cl
Data request: Endpoint returns the identifier whose pIC50 is numerically larger, either A or B . Let me know the label of the one you choose.
Data returned: B

----------
Assay System: Aldo-keto reductase family 1 member B1 (Homo sapiens)
Assay Details: Inhibition of Aldose reductase (unknown origin)
Measure: pIC50
On this scale, pIC50 is minus log10 of a concentration expressed in M (mol/L).

Data request: Which pIC50 value belongs to O=[N+]([O-])c1cc(Br)cc2c1NC=NS2(=O)=O ?
Data returned: 5.34

----------
Assay System: Aldo-keto reductase family 1 member B1 (Homo sapiens)
Assay Details: Inhibition of ALR2 (unknown origin)
Measure: IC50 (µM)

P = C/C(=N\NC(=S)Nc1cccc(Br)c1)c1ccc2c(c1)NC(=O)CO2
Q = Cc1cccc(-c2nn(-c3ccccc3)cc2/C=C2\SC(=S)N(c3ccc(C(=O)NCC(=O)O)cc3)C2=O)c1
R = C/C(=N\NC(=S)Nc1cccc(F)c1)c1ccc2c(c1)NC(=O)CO2
S = O=C(O)CNC(=O)c1ccc(N2C(=O)/C(=C/c3cn(-c4ccccc4)nc3-c3cccc(F)c3)SC2=S)cc1
Data request: Arrange the 4 molecules from largest to smallest IC50. Write out the labels following the order that was asked for.
Data returned: P, R, Q, S
(P: 0.52 µM, R: 0.19 µM, Q: 0.06 µM, S: 0.04 µM)

----------
Assay System: UniProt:P18031
Sequence (P18031 whole entry): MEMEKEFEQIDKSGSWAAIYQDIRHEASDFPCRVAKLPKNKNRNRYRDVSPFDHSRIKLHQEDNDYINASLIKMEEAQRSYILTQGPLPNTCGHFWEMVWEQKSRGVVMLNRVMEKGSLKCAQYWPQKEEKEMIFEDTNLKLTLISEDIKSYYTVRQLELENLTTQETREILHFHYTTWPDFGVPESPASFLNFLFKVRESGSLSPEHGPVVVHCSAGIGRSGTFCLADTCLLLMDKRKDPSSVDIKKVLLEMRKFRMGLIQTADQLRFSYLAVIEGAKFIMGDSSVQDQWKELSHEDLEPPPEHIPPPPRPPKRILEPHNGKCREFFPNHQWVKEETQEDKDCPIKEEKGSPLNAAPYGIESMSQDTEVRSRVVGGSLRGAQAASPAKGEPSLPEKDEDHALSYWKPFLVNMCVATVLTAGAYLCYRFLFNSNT
Assay Details: Inhibition of PTP1B (unknown origin)
Measure: IC50 (nM)

Example entries and their recorded answers appear below.
CCCCCCCCCCCCCCOc1ccccc1NC(=O)c1cccc(F)c1C(=O)O: 106
CCCCCNC(=O)[C@H](Cc1cccc(OCC(=O)O)c1C(=O)O)NC(=O)[C@H](Cc1ccccc1)NC(=O)Oc1ccccc1: 870
CCCCCCCCCCCCCCOc1ccccc1NC(=O)c1c(C(=O)O)cc(Cl)c(Cl)c1Cl: 180
CCCCCCCC/C(=C\Cn1oc(=O)[nH]c1=O)c1cccc(OCc2nc(-c3ccc(C(F)(F)F)cc3)oc2C)c1: 400

a = Oc1c(Br)cc(-c2ncc(-c3ccccc3)s2)c(Br)c1O
b = CCCCCCCCCCCCCCCCOc1ccccc1NC(=O)c1ncccc1C(=O)O
c = CCCCCCCCc1ccc(-n2c(C)ccc2-c2ccc(O[C@@H](Cc3ccccc3)C(=O)O)cc2)cc1
d = CCCCCCCC/C(=C/Cn1oc(=O)[nH]c1=O)c1cccc(OCc2nc(-c3ccc(C(F)(F)F)cc3)oc2C)c1
Data request: Let's sort these by IC50, smallest first. Go ahead? Return the labels ranked in the requested order, please.
Data returned: c, b, d, a
(c: 90 nM, b: 140 nM, d: 200 nM, a: 540 nM)

----------
Assay System: UniProt P18031
Assay Details: Inhibition of human recombinant PTP1B using pNPP as substrate incubated for 40 min
Measure: IC50 (µM)
# number only, unit µM dropped from output

Data request: I am curious: what IC50 value has been reported for O=C(NCCCN1C[C@@H](O)[C@H](O)[C@H]1CO)c1ccc([N+](=O)[O-])cc1 ?
Data returned: 31
